Every entry's value here was drawn from paper PMC10786891.

testedOn: T1, EsCas13d, nuclease-dead (Eubacterium siraeum, UniProt B0MS50, R295A;H300A;R849A;H854A)
T1 sequence: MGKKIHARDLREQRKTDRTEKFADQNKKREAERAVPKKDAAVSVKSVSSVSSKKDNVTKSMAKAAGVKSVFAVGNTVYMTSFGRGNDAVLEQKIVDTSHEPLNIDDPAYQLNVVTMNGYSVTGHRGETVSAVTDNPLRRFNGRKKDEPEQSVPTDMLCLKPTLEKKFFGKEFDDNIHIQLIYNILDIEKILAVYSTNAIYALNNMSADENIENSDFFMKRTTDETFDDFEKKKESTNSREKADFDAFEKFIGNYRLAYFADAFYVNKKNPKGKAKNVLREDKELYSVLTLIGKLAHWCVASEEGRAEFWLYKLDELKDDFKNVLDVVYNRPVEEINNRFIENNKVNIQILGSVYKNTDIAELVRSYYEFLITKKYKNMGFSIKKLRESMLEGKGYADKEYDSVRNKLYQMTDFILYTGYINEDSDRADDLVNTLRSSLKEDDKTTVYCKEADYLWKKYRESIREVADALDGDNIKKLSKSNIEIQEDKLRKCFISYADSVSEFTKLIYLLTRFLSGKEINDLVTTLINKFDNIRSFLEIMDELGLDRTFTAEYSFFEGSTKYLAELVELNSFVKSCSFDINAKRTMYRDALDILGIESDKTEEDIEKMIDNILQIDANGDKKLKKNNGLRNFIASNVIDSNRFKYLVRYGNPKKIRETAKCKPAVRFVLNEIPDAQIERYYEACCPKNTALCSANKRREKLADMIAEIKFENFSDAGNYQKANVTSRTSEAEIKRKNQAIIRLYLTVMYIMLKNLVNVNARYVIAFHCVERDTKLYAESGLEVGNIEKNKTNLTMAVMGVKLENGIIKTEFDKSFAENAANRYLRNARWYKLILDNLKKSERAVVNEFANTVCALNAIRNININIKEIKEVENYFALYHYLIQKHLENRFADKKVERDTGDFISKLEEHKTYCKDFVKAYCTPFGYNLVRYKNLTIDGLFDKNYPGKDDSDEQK
assayNotes: crRNA (strand 1, pre-loaded); Mg2+; 40 mM Tris-HCl pH 7.5, 150 mM NaCl, 6 mM MgCl2, 1 mM DTT, 0.1% Tween-20, 0.2 mg/ml BSA; 25 C; 10 min per concentration, then washed
runConditions: tags: His6-TwinStrep-SUMO cleaved; N-terminal SNAP kept (SNAP-Surface 488); label: 3' end held by stalled T7 RNA polymerase
Hi all, reminder that labels come from Kd, split as bottom bin = under 7 nM, middle bin = from 7 nM up to 40 nM, top bin = 40 nM and over

binder="target 2 MT 5'PFS UAG 3'PFS AGC (mixed) RNA 1: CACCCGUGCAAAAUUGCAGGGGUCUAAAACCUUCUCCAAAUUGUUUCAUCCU RNA 2: GGGAAUGGAUCCACAUCUACGAAUUCUAGAGGAUGAAACAAUUUGGAGAAGAGCAGAUCGGAAGAGCACACGU" discretelabel="bottom bin"
binder="target 1 insG 3' of 14,insA 3' of 4 (mixed) RNA 1: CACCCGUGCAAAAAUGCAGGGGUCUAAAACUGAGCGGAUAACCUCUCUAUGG RNA 2: GGGAAUGGAUCCACAUCUACGAAUUCGUACCAUAGAGAGGGUUAUCCGCAUCACCGAGAUCGGAAGAGCACACGU" discretelabel="middle bin"
binder="target 1 G5U,C21U (mixed) RNA 1: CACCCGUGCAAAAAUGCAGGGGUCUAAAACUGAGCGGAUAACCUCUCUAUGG RNA 2: GGGAAUGGAUCCACAUCUACGAAUUCGUACUAUAGAGAGGUUAUCCUCUCACCGAGAUCGGAAGAGCACACGU" discretelabel="bottom bin"
binder="target 1 insC 3' of 11,insG 3' of 6 (mixed) RNA 1: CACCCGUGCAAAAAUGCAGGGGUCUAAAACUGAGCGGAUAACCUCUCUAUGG RNA 2: GGGAAUGGAUCCACAUCUACGAAUUCGUACCAUAGAGAGGUCUAUCCGGCUCACCGAGAUCGGAAGAGCACACGU" discretelabel="top bin"
binder="target 2 MT 5'PFS UAA 3'PFS CUC (mixed) RNA 1: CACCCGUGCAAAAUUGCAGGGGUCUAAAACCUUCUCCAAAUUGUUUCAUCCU RNA 2: GGGAAUGGAUCCACAUCUACGAAUUCUAAAGGAUGAAACAAUUUGGAGAAGCUCAGAUCGGAAGAGCACACGU" discretelabel="bottom bin"
binder="target 3 insA 3' of 22,insC 3' of 5 (mixed) RNA 1: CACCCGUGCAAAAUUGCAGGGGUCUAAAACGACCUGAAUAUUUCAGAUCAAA RNA 2: GGGAAUGGAUCCACAUCUACGAAUUCGUUUAUUGAUCUGAAAUAUUCACGGUCUGCAGAUCGGAAGAGCACACGU" discretelabel="middle bin"
binder="target 1 U10G,C22A (mixed) RNA 1: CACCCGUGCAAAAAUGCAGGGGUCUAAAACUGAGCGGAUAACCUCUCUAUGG RNA 2: GGGAAUGGAUCCACAUCUACGAAUUCGUAACAUAGAGAGGUGAUCCGCUCACCGAGAUCGGAAGAGCACACGU" discretelabel="top bin"
binder="target 2 MT 5'PFS GAA 3'PFS CAA (mixed) RNA 1: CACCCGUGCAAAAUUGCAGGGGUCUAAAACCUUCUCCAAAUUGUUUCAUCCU RNA 2: GGGAAUGGAUCCACAUCUACGAAUUCGAAAGGAUGAAACAAUUUGGAGAAGCAAAGAUCGGAAGAGCACACGU" discretelabel="bottom bin"
binder="target 1 insA 3' of 21,insC 3' of 8 (mixed) RNA 1: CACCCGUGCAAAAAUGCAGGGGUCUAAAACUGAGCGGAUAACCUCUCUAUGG RNA 2: GGGAAUGGAUCCACAUCUACGAAUUCGUACCAAUAGAGAGGUUAUCCCGCUCACCGAGAUCGGAAGAGCACACGU" discretelabel="middle bin"
binder="target 1 A1G,G5A (mixed) RNA 1: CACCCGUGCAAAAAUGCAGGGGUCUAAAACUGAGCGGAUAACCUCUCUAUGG RNA 2: GGGAAUGGAUCCACAUCUACGAAUUCGUACCAUAGAGAGGUUAUCCACUCGCCGAGAUCGGAAGAGCACACGU" discretelabel="middle bin"

Tag the class for target 1 insC 3' of 20,insA 3' of 17 (mixed) RNA 1: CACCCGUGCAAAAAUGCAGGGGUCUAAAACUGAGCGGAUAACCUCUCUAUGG RNA 2: GGGAAUGGAUCCACAUCUACGAAUUCGUACCACUAGAAGAGGUUAUCCGCUCACCGAGAUCGGAAGAGCACACGU
middle bin

Category lookup for the binder target 1 G15A,G17C (mixed) RNA 1: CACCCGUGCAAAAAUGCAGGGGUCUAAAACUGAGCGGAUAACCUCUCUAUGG RNA 2: GGGAAUGGAUCCACAUCUACGAAUUCGUACCAUACAAAGGUUAUCCGCUCACCGAGAUCGGAAGAGCACACGU
top bin
